B1: TFE3 (parent)
chain: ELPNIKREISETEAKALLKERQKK

# Variants of: B1
# protocol description: protein stability index of a GFP-peptide fusion (GPS, HEK-293T) (PSI 1-6); higher = more stable;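 further: lentivirally expressed fusions sorted by FACS into six bins by GFP to DsRed ratio, PSI derived from sequencing read proportions per bin multiplied by bin number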
# recorded conditions: c terminus: a fixed tail appended
quantity kind: protein stability index
Give the figure by itself; no unit, no explanation.

// worked examples, protein stability index included
E8Q ... 3.34
P3M ... 1.93
N4R ... 2.34
K23C ... 3.09
N4W ... 3.35

Turning to the following variant.
Prompt line: Which protein stability index reading was recorded for the variant N4V ?
Response line: 3.86
